Molecular target: T1, UNK ZnF1-6 (called full-length) (human, UniProt Q9C0B0 30-357)
T1 sequence: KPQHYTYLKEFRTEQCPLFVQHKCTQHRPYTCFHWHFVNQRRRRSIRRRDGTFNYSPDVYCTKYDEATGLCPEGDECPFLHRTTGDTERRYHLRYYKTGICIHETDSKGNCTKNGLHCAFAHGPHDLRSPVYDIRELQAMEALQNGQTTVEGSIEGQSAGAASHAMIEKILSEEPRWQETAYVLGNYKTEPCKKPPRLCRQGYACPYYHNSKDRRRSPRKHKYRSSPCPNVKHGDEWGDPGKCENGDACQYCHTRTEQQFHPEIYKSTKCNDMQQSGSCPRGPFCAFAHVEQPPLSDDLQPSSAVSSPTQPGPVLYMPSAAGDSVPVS
Assay: nsRBNS (natural sequence RNA bind-n-seq); RBNS binding buffer (assumed for nsRBNS): 25 mM Tris pH 7.5, 150 mM KCl, 3 mM MgCl2, 0.01% Triton X-100, 500 ug/ml BSA, 20 U/ml SUPERase-In, 4 C; UNK is unkempt and MSI1 is Musashi-1; names of the RNAs are library labels; protein concentration not given here; high values mean tight binding
The full ranking holds about 5,800 sequences; the median of “enrichment r” is about 0.68, and the highest 2% start at about 11. Only a selection was taken, and the highest values are over-represented in it overall.

# binder, binding signal, enrichment R
data = [
    ("chr2:69942770:69942871:+|3pUTR|ENSG00000059728|unk|FALSE|unique (ssRNA) RNA: GGGAGUUCUACAGUCCGACGAUCUGUUUCCAGAUGUUUCUUUAUGUAAAUAUGACGCCAAUGUAAAUCCUGUGUCAAGAUCAUAGAGAAUGGUGCUUUUUACUACAGUUAGCACAUGCAUUUUUAGAAACUACUACAUGUUUUCAACAGAGGAUUGAGCAUCA", 0.538),
    ("ENSG00000107863:be:win_3351|CDS|ENSG00000107863|bound_else_gene|NA|bound_elsewhere_windowed (ssRNA) RNA: GGGAGUUCUACAGUCCGACGAUCAAAAGACAAAGGCACAUGGAGAAAAGGCAUUCCAAGUAUCAUGAGAAAGACAUUUGAGAAAAAGCCAACUGCUACAGGAACUUUCGGCGUCCGACUAGAUGACUGCCCACCAGCUCAUACCAACAGAGGAUUGAGCAUCA", 0.507),
    ("chr7:152122106:152122213:+|3pUTR|ENSG00000178234|unk|total|mutant (ssRNA) RNA: GGGAGUUCUACAGUCCGACGAUCAGUGGUUUUUAUCUGAUCAGGAACUUGUCAUGAUUUCCUUUCUCCGACUUCACCGGAGACCGUGCUUUAAAAAAAAAAAAAACUUCUAUUAUUUGUUCCGUAUGUUGUAAGCCGAUCAUUCAACAGAGGAUUGAGCAUCA", 0.949),
    ("ENSG00000070961:be:win_3901|3pUTR|ENSG00000070961|bound_else_gene|NA|bound_elsewhere_windowed (ssRNA) RNA: GGGAGUUCUACAGUCCGACGAUCAAGUGACCUGUGGAUCAUCAGUAGUACCCAAGCAUGGUCCUGAACAGUGUAUUAGCAGAGCUUUAGUUUAUCUCAGUCCUGGAUGGGAGAGAGAGGGAGGAGUAAAACUGGGCAAGACAACAACAGAGGAUUGAGCAUCA", 1.72),
]

src = paper PMC12136788
